target: rh integrin α4β7 (Homo sapiens, UniProt P13612+P26010)
Construct: purchased R&D Systems 5397-A30
Sequence (P13612 34-977 limits assumed): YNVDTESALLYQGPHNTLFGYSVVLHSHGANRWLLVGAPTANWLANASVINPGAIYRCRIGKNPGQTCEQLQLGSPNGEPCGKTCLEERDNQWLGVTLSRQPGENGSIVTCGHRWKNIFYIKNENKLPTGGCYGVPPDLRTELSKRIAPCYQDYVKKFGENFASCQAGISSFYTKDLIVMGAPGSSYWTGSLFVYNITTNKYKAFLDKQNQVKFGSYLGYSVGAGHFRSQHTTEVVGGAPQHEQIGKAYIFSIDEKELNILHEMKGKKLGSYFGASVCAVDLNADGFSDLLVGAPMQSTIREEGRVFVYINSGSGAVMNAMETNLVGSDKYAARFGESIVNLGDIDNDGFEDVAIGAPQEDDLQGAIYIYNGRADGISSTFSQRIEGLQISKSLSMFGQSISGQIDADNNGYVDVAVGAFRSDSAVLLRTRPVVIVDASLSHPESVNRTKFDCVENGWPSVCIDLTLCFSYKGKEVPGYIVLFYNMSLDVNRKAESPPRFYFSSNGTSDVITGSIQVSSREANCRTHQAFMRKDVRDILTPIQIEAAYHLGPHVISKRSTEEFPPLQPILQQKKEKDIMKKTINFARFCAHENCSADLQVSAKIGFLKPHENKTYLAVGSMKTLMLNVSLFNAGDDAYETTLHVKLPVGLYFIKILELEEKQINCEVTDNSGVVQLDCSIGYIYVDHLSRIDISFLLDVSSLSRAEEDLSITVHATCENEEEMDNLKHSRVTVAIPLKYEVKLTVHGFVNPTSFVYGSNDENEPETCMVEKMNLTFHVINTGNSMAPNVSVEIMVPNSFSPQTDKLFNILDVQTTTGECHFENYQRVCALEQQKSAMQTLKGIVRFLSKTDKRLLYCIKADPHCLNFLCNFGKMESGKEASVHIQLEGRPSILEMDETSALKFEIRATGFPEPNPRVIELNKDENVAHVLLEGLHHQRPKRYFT
Sequence (P26010 20-723 limits assumed): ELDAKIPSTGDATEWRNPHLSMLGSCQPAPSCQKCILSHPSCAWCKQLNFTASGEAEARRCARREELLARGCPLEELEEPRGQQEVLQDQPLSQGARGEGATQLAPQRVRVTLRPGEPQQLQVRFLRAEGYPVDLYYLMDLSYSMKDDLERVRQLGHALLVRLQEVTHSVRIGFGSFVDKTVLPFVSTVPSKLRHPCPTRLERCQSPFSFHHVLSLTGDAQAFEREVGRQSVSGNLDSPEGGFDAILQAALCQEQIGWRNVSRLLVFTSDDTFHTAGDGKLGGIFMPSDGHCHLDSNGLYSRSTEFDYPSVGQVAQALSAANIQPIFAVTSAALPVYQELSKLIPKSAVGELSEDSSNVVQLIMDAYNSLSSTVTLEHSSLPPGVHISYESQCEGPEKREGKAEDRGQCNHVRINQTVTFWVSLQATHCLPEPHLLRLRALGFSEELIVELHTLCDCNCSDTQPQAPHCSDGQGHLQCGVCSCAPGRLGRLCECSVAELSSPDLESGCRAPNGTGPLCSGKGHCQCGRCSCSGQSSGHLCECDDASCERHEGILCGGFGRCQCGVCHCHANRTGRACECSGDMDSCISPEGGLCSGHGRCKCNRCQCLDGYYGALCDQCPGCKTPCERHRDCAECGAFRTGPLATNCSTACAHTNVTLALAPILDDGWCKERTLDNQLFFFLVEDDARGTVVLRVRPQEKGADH
method.description: α4β7-MAdCAM Competition ELISA
Format: binding
assay.context: Table 3-B, Potency (α4β7); range classes; read-out: α4β7 ELISA IC50
Bridge positions count the residues as written; N and C are the ends. Square brackets hold non-standard residues; d marks the D form. Peptide text beside a SMILES is read from it. d2Nal = N[C@H](Cc1ccc2ccccc2c1)C(=O)O; NMeR = CN[C@@H](CCCNC(=N)N)C(=O)O; Tic = O=C(O)[C@@H]1Cc2ccccc2CN1; Pen = CC(C)(S)[C@H](N)C(=O)O; βAla = NCCC(=O)O
As shown below, each of these compounds has a reported IC50 value.

In the examples that follow, each entry is paired with its recorded IC50.
CC(C)C[C@@H]1NC(=O)[C@H]([C@@H](C)O)NC(=O)[C@H](CC(=O)O)NC(=O)[C@H](CO)NC(=O)[C@H](CCCNC(=N)N)N(C)C(=O)[C@@H](NC(=O)CCN)C(C)(C)SSC(C)(C)[C@@H](C(=O)N[C@@H](Cc2c[nH]c3ccccc23)C(=O)N[C@@H](CCC(=O)O)C(N)=O)NC1=O [compound 52] (H-[βAla][Pen][NMeR]SDTL[Pen]WE-NH2; disulfide 2-8): 10 to 25 nM
CC(=O)N[C@@H]1C(=O)N(C)[C@@H](CCCNC(=N)N)C(=O)N[C@@H](CO)C(=O)N[C@@H](CC(=O)O)C(=O)N[C@@H]([C@@H](C)O)C(=O)N[C@@H](CC(C)C)C(=O)N[C@H](C(=O)N[C@H](Cc2ccc3ccccc3c2)C(=O)N[C@@H](CCC(=O)O)C(=O)N[C@H](CCCCN)C(N)=O)C(C)(C)SSC1(C)C [compound 11] (Ac-[Pen][NMeR]SDTL[Pen][d2Nal]E[dK]-NH2; disulfide 1-7): 25 to 50 nM

(Q) Please supply the value of reported IC50 for the item CC(=O)N[C@@H]1C(=O)N(C)[C@@H](CCCNC(=N)N)C(=O)N[C@@H](CO)C(=O)N[C@@H](CC(=O)O)C(=O)N[C@@H]([C@@H](C)O)C(=O)N[C@@H](CC(C)C)C(=O)N[C@H](C(=O)N2Cc3ccccc3C[C@H]2C(=O)N[C@H](CCC(=O)O)C(=O)N[C@H](CCCCN)C(N)=O)CSSC1(C)C [compound 89] (Ac-[Pen][NMeR]SDTLC[Tic][dE][dK]-NH2; disulfide 1-7)
(A) 25 to 50 nM

###

As shown below, each of these compounds has a reported IC50 value.
target: α4β7 (Homo sapiens, UniProt P13612+P26010)
Sequence (P13612 34-1032): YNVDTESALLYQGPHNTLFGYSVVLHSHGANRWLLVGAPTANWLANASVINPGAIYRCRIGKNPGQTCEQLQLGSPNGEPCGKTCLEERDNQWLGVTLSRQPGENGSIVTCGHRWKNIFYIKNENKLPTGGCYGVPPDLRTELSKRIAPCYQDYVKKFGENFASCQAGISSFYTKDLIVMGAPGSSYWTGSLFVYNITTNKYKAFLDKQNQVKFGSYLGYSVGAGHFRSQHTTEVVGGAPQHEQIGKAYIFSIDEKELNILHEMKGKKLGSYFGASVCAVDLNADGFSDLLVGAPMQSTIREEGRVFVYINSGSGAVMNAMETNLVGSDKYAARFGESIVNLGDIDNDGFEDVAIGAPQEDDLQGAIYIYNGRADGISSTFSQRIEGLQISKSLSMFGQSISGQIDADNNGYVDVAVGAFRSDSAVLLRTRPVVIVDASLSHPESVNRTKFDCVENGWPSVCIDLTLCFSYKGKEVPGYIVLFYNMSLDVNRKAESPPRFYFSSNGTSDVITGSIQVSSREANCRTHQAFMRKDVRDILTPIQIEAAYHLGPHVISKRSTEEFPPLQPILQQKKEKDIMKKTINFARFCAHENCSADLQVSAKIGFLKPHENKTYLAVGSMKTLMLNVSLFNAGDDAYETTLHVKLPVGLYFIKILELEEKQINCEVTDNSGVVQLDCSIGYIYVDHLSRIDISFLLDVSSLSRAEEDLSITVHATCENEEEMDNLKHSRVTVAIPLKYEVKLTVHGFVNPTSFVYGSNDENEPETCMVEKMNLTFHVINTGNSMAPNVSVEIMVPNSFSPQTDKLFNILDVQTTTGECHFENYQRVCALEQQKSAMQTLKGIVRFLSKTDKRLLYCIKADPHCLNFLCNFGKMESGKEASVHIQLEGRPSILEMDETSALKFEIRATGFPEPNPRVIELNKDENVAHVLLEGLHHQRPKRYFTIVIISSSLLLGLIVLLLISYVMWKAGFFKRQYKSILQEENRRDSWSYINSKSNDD
Sequence (P26010 20-798): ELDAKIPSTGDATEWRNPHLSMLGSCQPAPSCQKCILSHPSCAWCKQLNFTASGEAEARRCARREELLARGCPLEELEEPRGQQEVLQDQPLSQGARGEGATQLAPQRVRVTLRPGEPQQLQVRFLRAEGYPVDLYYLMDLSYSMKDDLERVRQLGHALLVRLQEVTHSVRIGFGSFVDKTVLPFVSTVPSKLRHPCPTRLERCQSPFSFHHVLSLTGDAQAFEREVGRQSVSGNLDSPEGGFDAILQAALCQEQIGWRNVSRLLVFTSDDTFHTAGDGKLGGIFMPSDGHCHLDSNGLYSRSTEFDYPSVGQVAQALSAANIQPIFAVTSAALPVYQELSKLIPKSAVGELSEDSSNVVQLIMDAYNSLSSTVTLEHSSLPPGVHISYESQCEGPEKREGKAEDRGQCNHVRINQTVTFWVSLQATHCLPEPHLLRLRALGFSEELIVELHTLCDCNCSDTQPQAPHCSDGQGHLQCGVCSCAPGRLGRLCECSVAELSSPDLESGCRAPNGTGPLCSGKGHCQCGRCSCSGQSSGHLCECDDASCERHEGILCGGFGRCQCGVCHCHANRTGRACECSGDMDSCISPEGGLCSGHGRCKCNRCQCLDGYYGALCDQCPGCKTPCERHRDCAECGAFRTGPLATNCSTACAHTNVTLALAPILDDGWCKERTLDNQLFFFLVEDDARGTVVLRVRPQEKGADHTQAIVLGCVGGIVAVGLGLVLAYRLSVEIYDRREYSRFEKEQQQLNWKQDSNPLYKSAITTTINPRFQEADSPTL
method.description: α4β7-MAdCAM Cell Adhesion Assay (RPMI 8866 human cells)
Type: cell-based
Design: host or cells: RPMI 8866 human B lymphoblastoid cells
assay.context: Table 3-B, Potency (α4β7); range classes; read-out: α4β7 cell (Hu) IC50
Bridge positions count the residues as written; N and C are the ends. Square brackets hold non-standard residues; d marks the D form. Peptide text beside a SMILES is read from it. * marks the point of attachment. Phe(4-tBu) = CC(C)(C)c1ccc(C[C@H](N)C(=O)O)cc1; 2Nal = N[C@@H](Cc1ccc2ccccc2c1)C(=O)O; NMeR = CN[C@@H](CCCNC(=N)N)C(=O)O; β3hE = N[C@@H](CCC(=O)O)CC(=O)O; Pen = CC(C)(S)[C@H](N)C(=O)O; dNMeK = CN[C@H](CCCCN)C(=O)O; Lauroyl = CCCCCCCCCCCC(=O)*; Isovaleryl = CC(C)CC(=O)*; βAla = NCCC(=O)O

In the examples that follow, each entry is paired with its recorded IC50.
CC(C)C[C@@H]1NC(=O)[C@H]([C@@H](C)O)NC(=O)[C@H](CC(=O)O)NC(=O)[C@H](CO)NC(=O)[C@H](CCCNC(=N)N)N(C)C(=O)[C@@H](NC(=O)CCN)C(C)(C)SSC(C)(C)[C@@H](C(=O)N[C@@H](Cc2c[nH]c3ccccc23)C(=O)N[C@@H](CCC(=O)O)C(N)=O)NC1=O [compound 52] (H-[βAla][Pen][NMeR]SDTL[Pen]WE-NH2; disulfide 2-8): 100 to 500 nM
CCCCCCCCCCCC(=O)N[C@@H]1C(=O)N(C)[C@@H](CCCNC(=N)N)C(=O)N[C@@H](CO)C(=O)N[C@@H](CC(=O)O)C(=O)N[C@@H]([C@@H](C)O)C(=O)N[C@@H](CC(C)C)C(=O)N[C@H](C(=O)N[C@@H](Cc2ccc(C(C)(C)C)cc2)C(=O)N[C@@H](CCC(=O)O)CC(=O)N[C@H](CCCCN)C(N)=O)C(C)(C)SSC1(C)C [compound 179] (Lauroyl-[Pen][NMeR]SDTL[Pen][Phe(4-tBu)][β3hE][dK]-NH2; disulfide 1-7): 100 to 500 nM
CC(C)CC(=O)N[C@@H]1C(=O)N(C)[C@@H](CCCNC(=N)N)C(=O)N[C@@H](CO)C(=O)N[C@@H](CC(=O)O)C(=O)N[C@@H]([C@@H](C)O)C(=O)N[C@@H](CC(C)C)C(=O)N[C@H](C(=O)N[C@@H](Cc2ccc(C(C)(C)C)cc2)C(=O)N[C@@H](CCC(=O)O)CC(=O)N[C@H](CCCCN)C(N)=O)C(C)(C)SSC1(C)C [compound 177] (Isovaleryl-[Pen][NMeR]SDTL[Pen][Phe(4-tBu)][β3hE][dK]-NH2; disulfide 1-7): 50 to 100 nM

(Q) Please supply the value of reported IC50 for the item CC(=O)N[C@@H]1C(=O)N(C)[C@@H](CCCNC(=N)N)C(=O)N[C@@H](CO)C(=O)N[C@@H](CC(=O)O)C(=O)N[C@@H]([C@@H](C)O)C(=O)N[C@@H](CC(C)C)C(=O)N[C@H](C(=O)N[C@@H](Cc2ccc3ccccc3c2)C(=O)N[C@H](CCC(=O)O)C(=O)N(C)[C@H](CCCCN)C(N)=O)C(C)(C)SSC1(C)C [compound 13] (Ac-[Pen][NMeR]SDTL[Pen][2Nal][dE][dNMeK]-NH2; disulfide 1-7)
(A) 100 to 500 nM

(Q) Please supply the value of reported IC50 for the item CC(=O)N[C@@H]1C(=O)N(C)[C@@H](CCCNC(=N)N)C(=O)N[C@@H](CO)C(=O)N[C@@H](CC(=O)O)C(=O)N[C@@H]([C@@H](C)O)C(=O)N[C@@H](CC(C)C)C(=O)N[C@H](C(=O)N[C@@H](Cc2c[nH]c3ccccc23)C(=O)O)C(C)(C)SSC1(C)C [compound 127] (Ac-[Pen][NMeR]SDTL[Pen]W-OH; disulfide 1-7)
(A) 100 to 500 nM

###

target: α4β7 (Homo sapiens, UniProt P13612+P26010)
method.description: α4β7-MAdCAM Cell Adhesion Assay (RPMI 8866 human cells)
Format: cell-based
Set-up: host or cells: RPMI 8866 human B lymphoblastoid cells
assay.context: Table 3-B, Potency (α4β7); range classes; read-out: α4β7 cell (Hu) IC50
Bridge positions count the residues as written; N and C are the ends. Square brackets hold non-standard residues; d marks the D form. Peptide text beside a SMILES is read from it. * marks the point of attachment. Phe(4-tBu) = CC(C)(C)c1ccc(C[C@H](N)C(=O)O)cc1; 2Nal = N[C@@H](Cc1ccc2ccccc2c1)C(=O)O; Oleoyl = CCCCCCCC/C=C\CCCCCCCC(=O)*; NMeR = CN[C@@H](CCCNC(=N)N)C(=O)O; β3hE = N[C@@H](CCC(=O)O)CC(=O)O; Pen = CC(C)(S)[C@H](N)C(=O)O; Dab = NCC[C@H](N)C(=O)O
attribute.measured: IC50

CCCCCCCC/C=C\CCCCCCCC(=O)N[C@@H]1C(=O)N(C)[C@@H](CCCNC(=N)N)C(=O)N[C@@H](CO)C(=O)N[C@@H](CC(=O)O)C(=O)N[C@@H]([C@@H](C)O)C(=O)N[C@@H](CC(C)C)C(=O)N[C@H](C(=O)N[C@@H](Cc2ccc(C(C)(C)C)cc2)C(=O)N[C@@H](CCC(=O)O)CC(=O)N[C@H](CCCCN)C(N)=O)C(C)(C)SSC1(C)C [compound 180] (Oleoyl-[Pen][NMeR]SDTL[Pen][Phe(4-tBu)][β3hE][dK]-NH2; disulfide 1-7): 1000 to 10000 nM
CC(=O)N[C@@H]1C(=O)N(C)[C@@H](CCCNC(=N)N)C(=O)N[C@@H](CO)C(=O)N[C@@H](CC(=O)O)C(=O)N[C@@H]([C@@H](C)O)C(=O)N[C@@H](CC(C)C)C(=O)N[C@H](C(=O)N[C@@H](Cc2c[nH]c3ccccc23)C(=O)N[C@H](CCC(=O)O)C(=O)N[C@@H](CCN)C(N)=O)C(C)(C)SSC1(C)C [compound 56] (Ac-[Pen][NMeR]SDTL[Pen]W[dE][Dab]-NH2; disulfide 1-7): 500 to 1000 nM

Now turn to the next molecule.
(Q) Please supply the value of reported IC50 for the item CC[C@H](C)[C@@H]1NC(=O)[C@H](CC(=O)O)NC(=O)[C@H](CO)NC(=O)[C@H](CCCNC(=N)N)N(C)C(=O)[C@@H](NC(C)=O)C(C)(C)SSC(C)(C)[C@@H](C(=O)N[C@@H](Cc2ccc3ccccc3c2)C(=O)N[C@H](CCC(=O)O)C(N)=O)NC(=O)[C@H](CC(C)C)NC1=O [compound 160] (Ac-[Pen][NMeR]SDIL[Pen][2Nal][dE]-NH2; disulfide 1-7)
(A) 1000 to 10000 nM
